target: UniProtKB P24941; experiment: Enzyme Assay; conditions: concentration not given here
PROPERTY_NAME: inhibition (%)

Qu. Fill in: inhibition of `Cc1cccc(CN(C)C(=O)c2ccc(Nc3nc(N)c(C(=O)c4c(F)cccc4F)s3)cc2)n1` is ___
Ans. -1

I. COc1ccc(OC)c(CCNC(=O)c2ccc(Nc3nc(N)c(C(=O)c4c(F)cccc4F)s3)cc2)c1
II. CCN(CC)CCCN(C)C(=O)c1ccc(Nc2nc(N)c(C(=O)c3c(F)cccc3F)s2)cc1
III. Nc1nc(Nc2ccc(O)cc2)sc1C(=O)c1c(F)cccc1F
Qu. Put the entries in order of inhibition, starting with the largest number. I'd appreciate it if you listed the labels in the requested order.
Ans. III, I, II

These data points were gathered from the Kinase Knowledgebase extract (Sharma et al. 2016).
